biological target: human orexin type 2 receptor (hOX2R) (Homo sapiens); construct: expressed in transfected cells; assay: Measurement of orexin type 2 receptor agonist activity (FLIPR calcium fluorescence); type: cell-based; conditions: CHO, CHO cells expressing hOX2R, FLIPR calcium fluorescence; read-out: hOx2 Emax (%)
The entries below are paired with their reported Emax.

chemicalStructure	testResult
COC1(CNC(=O)N2CC3(CC3)[C@H](NS(=O)(=O)C(F)F)[C@@H]2Cc2cccc(-c3ccccc3)c2F)CC1	90 to 100%
[2H]c1c([2H])c([2H])c(-c2cccc(C[C@H]3[C@@H](NS(=O)(=O)CF)C4(CC4)CN3C(=O)[C@H]3CCO3)c2F)c([2H])c1[2H]	90 to 100%

// switching to the query compound
Which Emax value is on record for CS(=O)(=O)N[C@@H]1[C@H](Cc2cccc(-c3ccccc3)c2F)N(C(=O)NC2CC(F)(F)C2)CC12CC2 ?
90 to 100%

====

The entries below are paired with their reported EC50.
Biological target: human orexin type 2 receptor (hOX2R) (Homo sapiens, UniProt O43614)
Construct: expressed in transfected cells
Sequence (O43614 1-444): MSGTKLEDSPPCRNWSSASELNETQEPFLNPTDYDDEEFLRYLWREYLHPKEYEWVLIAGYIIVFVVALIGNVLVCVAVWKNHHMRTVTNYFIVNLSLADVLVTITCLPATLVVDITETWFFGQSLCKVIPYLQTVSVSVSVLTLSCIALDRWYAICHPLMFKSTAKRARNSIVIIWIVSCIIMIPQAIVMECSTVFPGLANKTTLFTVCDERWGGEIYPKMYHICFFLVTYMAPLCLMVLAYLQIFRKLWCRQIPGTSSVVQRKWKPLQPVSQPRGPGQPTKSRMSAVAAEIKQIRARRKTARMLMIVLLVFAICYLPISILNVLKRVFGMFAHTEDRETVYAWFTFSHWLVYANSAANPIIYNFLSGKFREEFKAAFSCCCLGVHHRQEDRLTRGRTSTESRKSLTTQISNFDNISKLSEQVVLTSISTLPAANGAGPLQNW
Experiment: Measurement of orexin type 2 receptor agonist activity (FLIPR calcium fluorescence)
Format: cell-based
Details: CHO cells expressing hOX2R, FLIPR calcium fluorescence; read-out: hOx2 pEC50 (converted)

Example entries and their recorded answers appear below.
compound	EC50
O=C([C@H]1CCO1)N1CC2(CC2)[C@H](NS(=O)(=O)C(F)F)[C@@H]1Cc1cccc(-c2cccc(F)c2)c1F	0.0794 to 1 nM
C[C@@]1(C(=O)N2CC3(CC3)[C@H](NS(=O)(=O)CF)[C@@H]2Cc2cccc(-c3ccccc3)c2F)CCO1	1 to 10 nM

What value of EC50 on human orexin type 2 receptor (hOX2R) (Homo sapiens, UniProt O43614) does CC1CN(C(=O)N2CC3(CC3)C(NS(C)(=O)=O)C2Cc2cccc(-c3ccccc3)c2)C1 (racemic) have?
1 to 10 nM

Also, O=C(NCCF)N1CC2(CC2)[C@H](NS(=O)(=O)C(F)F)[C@@H]1Cc1cccc(-c2ccccc2)c1F please.
1 to 10 nM

Also, N#CC1(CNC(=O)N2CC3(CC3)[C@H](NS(=O)(=O)CF)[C@@H]2Cc2cccc(-c3ccccc3)c2F)CC1 please.
0.0794 to 1 nM

====

target: human orexin type 2 receptor (hOX2R) (Homo sapiens, UniProt O43614); construct: expressed in transfected cells; test: Measurement of orexin type 2 receptor agonist activity (FLIPR calcium fluorescence); assay type: cell-based; conditions: CHO cells expressing hOX2R, FLIPR calcium fluorescence; read-out: hOx2 pEC50 (converted)
propertyName: EC50

compound	EC50
CCNC(=O)N1CC2(CC2)C(NS(C)(=O)=O)C1Cc1cccc(-c2ccccc2)c1F (racemic)	1 to 10 nM
[2H]c1c([2H])c([2H])c(-c2cc(F)cc(C[C@H]3[C@@H](NS(C)(=O)=O)C4(CC4)CN3C(=O)[C@H]3CCO3)c2F)c([2H])c1[2H]	1 to 10 nM
C[C@@H](CF)NC(=O)N1CC2(CC2)[C@H](NS(C)(=O)=O)[C@@H]1Cc1cccc(-c2ccccc2)c1F	1 to 10 nM
CO[C@H](C)CNC(=O)N1CC2(CC2)[C@H](NS(C)(=O)=O)[C@@H]1Cc1cccc(-c2ccccc2)c1F	10 to 100 nM
CN(C)C(=O)N1CC2(CC2)[C@H](NS(C)(=O)=O)[C@@H]1Cc1cc(F)cc(-c2ccccc2)c1F	10 to 100 nM

Which EC50 value is on record for CS(=O)(=O)N[C@@H]1[C@H](Cc2cccc(-c3ccccc3)c2F)N(C(=O)NC23CC(F)(C2)C3)CC12CC2 ?
10 to 100 nM

Also, O=C(NCCF)N1CC2(CC2)[C@H](NS(=O)(=O)CF)[C@@H]1Cc1cc(F)cc(-c2ccccc2)c1F please.
1 to 10 nM
